B1: C10orf62 (parent)
chain: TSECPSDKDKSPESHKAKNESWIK

- Variants of: B1
- method-description: protein stability index of a GFP-peptide fusion (GPS, HEK-293T) (PSI 1-6); higher = more stable;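 further: lentivirally expressed fusions sorted by FACS into six bins by GFP to DsRed ratio, PSI derived from sequencing read proportions per bin multiplied by bin number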
- particulars: c terminus: a fixed tail appended
A collection of variants and their measured protein stability index

# variant, protein stability index
data = [
    ("I23A", 3.68),
    ("S2I", 3.25),
    ("E13T", 2.65),
    ("C4H", 3.34),
    ("W22K", 5.46),
    ("K16L", 3.37),
    ("D9E", 3),
    ("D7Y", 2.85),
    ("S6C", 3.17),
    ("I23D", 5.72),
    ("N19Y", 3.11),
    ("T1Y", 3.14),
    ("C4M", 3.79),
    ("P12W", 2.37),
    ("E13W", 2.17),
    ("A17T", 3.14),
    ("T1D", 3.6),
    ("P12I", 3.21),
    ("H15K", 4.06),
    ("K18H", 4.03),
    ("K18Q", 3.9),
    ("E13M", 2.65),
]
